assay: galactose survival enhancers in mitochondrial complex I cybrids – cell-based, galactose medium, ATP luminescence, primary screen (AID 1645843); details: complex I mutant cybrid cells, 72 h, active compounds read high;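 also: positive z means more ATP and so rescue of galactose-driven cybrid death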
Category | rule: reported z-score within range, see low = under -0.5, middle = from -0.5 up to 0.3, high = 0.3 and over

{"compound": "COc1ccc(CN(C)C(=O)Nc2nc(-c3ccccc3)ns2)cc1", "cat": "high"}
{"compound": "CO[C@@H]1[C@@H](OC(N)=O)[C@H](O)[C@H](Oc2ccc3c(O)c(NC(=O)c4ccc(O)c(CC=C(C)C)c4)c(=O)oc3c2C)OC1(C)C", "cat": "high"}
{"compound": "Nc1ccn(C2O[C@H](CO)[C@@H](O)C2(F)F)c(=O)n1 (some centres not stated)", "cat": "low"}
{"compound": "COCCN(C)Cc1ccc(-c2nc(C)c(C)c(=O)[nH]2)cc1", "cat": "low"}
{"compound": "Cc1ccccc1-n1cc(-c2ccnc(NCc3nnc4n3CCCC4)n2)cn1", "cat": "middle"}
{"compound": "CCCn1cnc(NC(=O)NC2CCN(Cc3ccccc3)CC2)n1", "cat": "high"}
{"compound": "Cc1cnc(CNC(=O)c2cccc(Nc3ncnc4c3cnn4C)c2)cn1", "cat": "low"}
{"compound": "Cc1nn(C)cc1-c1ccnc(N2CCCC(c3nc4c(C)cccc4[nH]3)C2)n1 (configuration not stated)", "cat": "low"}
{"compound": "CCc1nc(NC(=O)N(C)Cc2cccc(-n3cccn3)c2)nn1C", "cat": "low"}
{"compound": "Cc1nsc(NC(=O)NC(C)c2ccc(Cl)cc2)n1 (configuration not stated)", "cat": "middle"}

---

assay: viability loss with induced miR-34 in A549 – imaging, A549 dox-inducible miR-34, nuclei and caspase counts, primary screen (AID 1347080); conditions: A549 miR-34 inducible, Hoechst nuclei count, 48 h; cell number ratio, induced over uninduced; also: test concentration not given here
Activity calls are given as the source filed them.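 Rule for the calls: active = compounds whose cell count with miR-34 switched on is under 0.7 times the count with it off; inactive = the rest.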
Labels: TRUE for active, FALSE for inactive

{"molecule": "Cc1cnc(NC(=O)Nc2cc(Br)c(C)cc2OCC2CNCCO2)cn1 (configuration not stated)", "cat": "FALSE"}
{"molecule": "OC(c1cc(C(F)(F)F)nc2c(C(F)(F)F)cccc12)[C@H]1CCCCN1 (some centres not stated)", "cat": "FALSE"}
{"molecule": "COc1cc(-c2cc(-c3cccc(O)c3)cnc2N)cc(OC)c1OC", "cat": "FALSE"}
{"molecule": "CC1(C)S[C@@H]2C(NC(=O)Cc3ccccc3)C(=O)N2C1C(=O)O (some centres not stated)", "cat": "FALSE"}
{"molecule": "CC(C)(CCl)C(=O)Nc1ccc(C(F)(F)F)cc1", "cat": "FALSE"}
{"molecule": "C=C1c2c(Cl)ccc(O)c2C(O)=C2C(=O)[C@]3(O)C(O)=C(C(N)=O)C(=O)[C@@H](N(C)C)[C@@H]3[C@@H](O)C12 (some centres not stated)", "cat": "TRUE"}
{"molecule": "Cn1ccnc1", "cat": "FALSE"}
{"molecule": "Oc1cccc(-c2nc(N3CCOCC3)c3sccc3n2)c1", "cat": "FALSE"}
{"molecule": "CC(C)(C)OC(=O)NC1CCCCCC=CC2C[C@@]2(C(=O)NS(=O)(=O)C2CC2)NC(=O)C2CC(OC(=O)N3Cc4cccc(F)c4C3)CN2C1=O (some centres not stated)", "cat": "FALSE"}
{"molecule": "O=C(O)CCC(C(=O)O)N1C(=O)c2ccccc2C1=O (configuration not stated)", "cat": "FALSE"}
{"molecule": "NC(=O)Cc1c[nH]c2ccccc12", "cat": "FALSE"}
{"molecule": "CN1C2CC[C@H]1CC(OC(=O)C(O)c1ccccc1)C2 (some centres not stated)", "cat": "FALSE"}
{"molecule": "CC(C)=CCC/C(C)=C/CC1=C(C)C(=O)c2ccccc2C1=O", "cat": "FALSE"}
{"molecule": "CC[C@]1(O)CC2CN(CCc3c([nH]c4ccccc34)[C@@](C(=O)OC)(c3cc4c(cc3OC)N(C)C3[C@@](O)(C(N)=O)C(O)[C@]5(CC)C=CCN6CC[C@]43C65)C2)C1 (some centres not stated)", "cat": "FALSE"}
{"molecule": "c1ccc(-c2[nH]ncc2-c2ccnc3ccccc23)nc1", "cat": "FALSE"}
{"molecule": "Cc1ccc2c(c1)N(Cc1nc(C(C)(C)C)no1)C(=O)CO2", "cat": "FALSE"}
{"molecule": "OCc1ccc(OC2OC(CO)C(O)C(O)C2O)cc1 (configuration not stated)", "cat": "FALSE"}
{"molecule": "Cn1ncc(S(=O)(=O)Cc2ccccc2)c(Br)c1=O", "cat": "FALSE"}
{"molecule": "CN1CC(=O)N/C1=N\\C(=O)Nc1cccc(Cl)c1", "cat": "FALSE"}
{"molecule": "CC(O)[C@@H]1C(=O)N2C(C(=O)O)=C(SC3CNC(CNS(N)(=O)=O)C3)C(C)[C@@H]12 (some centres not stated)", "cat": "FALSE"}
{"molecule": "Cc1nc(N=Nc2ccc(S(=O)(=O)O)cc2S(=O)(=O)O)c(COP(=O)(O)O)c(C=O)c1O", "cat": "FALSE"}
{"molecule": "N#Cc1c(Oc2ccc(F)c(NC(=O)Cc3cccc(C(F)(F)F)c3)c2)ccc2nc(NC(=O)C3CC3)sc12", "cat": "FALSE"}
